From: patent US5830855A

- Test system: Candida rugosa
- procedure.details: Minimum Fungicidal Concentration (MFC)
- Type: cell-based
- measurement.parameters: Table 2, 2 isolates, 24 hr
Numbered stars: 1 amine (or outer) side, 2 acyl side, 3 side chain; on linkers, the order of the positions; unused ones are H or OH. Bridge positions count the residues as written; N and C are the ends. Square brackets hold non-standard residues; d marks the D form. Peptide text beside a SMILES is read from it. * marks the point of attachment. ξ: configuration not given here. Asp(3S-OH) = N[C@H](C(=O)O)[C@H](O)C(=O)O; Thr(4-Cl) = N[C@H](C(=O)O)[C@H](O)CCl; ξAsp(3ξ-OH) = NC(C(=O)O)C(O)C(=O)O; X3 = O=C(C(N[*:1])C(O)CCl)[*:2]; X1 = CCCCCCCCC[C@@H](O)CC(=O)*; X2 = CCCCCCCCCCCC(O)CC(=O)*; dDab = NCC[C@@H](N)C(=O)O; Dab = NCC[CH](N)C(=O)O; Orn = NCCC[CH](N)C(=O)O; hSer = N[CH](CCO)C(=O)O; Dhb = C/C=C(\N)C(=O)O
outcome.measure: MFC (μg/ml) range

molecule	measured
C[C@@H]1[C@H](O)[C@@H](C)/C=C/C=C/C=C/C=C/C=C/C=C/C=C/[C@H](O[C@@H]2O[C@H](C)[C@@H](O)[C@H](N)[C@@H]2O)C[C@@H]2O[C@](O)(C[C@@H](O)C[C@@H](O)[C@H](O)CC[C@@H](O)C[C@@H](O)CC(=O)O[C@H]1C)C[C@H](O)[C@H]2C(=O)O [AmB, amphotericin B, reference compound]	0.6 to 2.5 µg/mL
C/C=C1\NC(=O)C(C(C)O)NC(=O)C(CCCN)NC(=O)C(CCO)NC(=O)CNC(=O)C(CCN)NC(=O)C(NC(=O)CC(O)CCCCCCCCCCC)COC(=O)C(C(O)CCl)NC(=O)C(C(O)C(=O)O)NC1=O (stereo not drawn) [ST-B, Syringotoxin B] (X2-S[Dab]G[hSer][Orn]T[Dhb][ξAsp(3ξ-OH)][X3]; ester 1-C; configuration not given here)	6.25 to 50 µg/mL
C/C=C1\NC(=O)[C@H](Cc2ccccc2)NC(=O)[C@H](CCCN=C(N)N)NC(=O)[C@@H](CCN)NC(=O)[C@H](CCN)NC(=O)[C@@H](CO)NC(=O)[C@@H](NC(=O)C[C@H](O)CCCCCCCCC)COC(=O)[C@H]([C@H](O)CCl)NC(=O)[C@H]([C@H](O)C(=O)O)NC1=O [SR-E, Syringomycin-E] (X1-S[dS][Dab][dDab]RF[Dhb][Asp(3S-OH)][Thr(4-Cl)]; ester 1-C)	10 to 20 µg/mL
